Listed next: entries and their corresponding IC50.
# System: MCF-7 cells
# experimentDescription: Breast Cancer Cell Viability Assay (MCF7 Viability Assay, CellTiter-Glo)
# Assay type: cell-based
# assayContext: Homo sapiens, MCF7, 120 h, 5 days' compound exposure

molecule | IC50
Oc1ccc2c(c1)CC(c1ccccc1)C2c1ccc(OCCN2CCCC2)cc1 (stereo not shown) | > 1 nM
C[C@@H]1CCN([C@@H](C)COc2ccc(C3c4ccc(O)cc4CC3c3ccc(F)cc3)cc2)C1 (stereo partly shown) | > 1 nM
C[C@@H]1CCN([C@@H](C)COc2ccc(C3c4ccc(O)cc4CC3c3cccc(O)c3)cc2)C1 (stereo partly shown) | ≤ 1 nM
C[C@@H]1CCN([C@@H](C)COc2ccc(C3c4ccc(O)c(F)c4CC3c3ccc(O)cc3)cc2)C1 (stereo partly shown) | ≤ 1 nM

Lookup: What IC50 appears in the records for this molecule with MCF-7 cells? Oc1ccc(C2Cc3cc(O)ccc3C2c2ccc(OCCN3CCCC3)cc2)cc1 (stereo not shown)
Found: ≤ 1 nM

Lookup: // lookup IC50 | system=MCF-7 cells | key= C[C@@H]1CCN([C@@H](C)COc2ccc(C3c4ccc(O)cc4CC3c3ccc(O)cc3)cc2)C1 (stereo partly shown)
Found: ≤ 1 nM

Lookup: Param readout = IC50; param system = MCF-7 cells; param query = C[C@@H]1CCN([C@@H](C)COc2ccc(C3c4ccc(O)cc4CC3c3ccccc3)cc2)C1 (stereo partly shown) ; response: value
Found: ≤ 1 nM

---

# testSystem: ER-α (Homo sapiens, UniProt P03372)
# Construct: endogenous in cells; host or cells: MCF-7
# Sequence (P03372 1-595): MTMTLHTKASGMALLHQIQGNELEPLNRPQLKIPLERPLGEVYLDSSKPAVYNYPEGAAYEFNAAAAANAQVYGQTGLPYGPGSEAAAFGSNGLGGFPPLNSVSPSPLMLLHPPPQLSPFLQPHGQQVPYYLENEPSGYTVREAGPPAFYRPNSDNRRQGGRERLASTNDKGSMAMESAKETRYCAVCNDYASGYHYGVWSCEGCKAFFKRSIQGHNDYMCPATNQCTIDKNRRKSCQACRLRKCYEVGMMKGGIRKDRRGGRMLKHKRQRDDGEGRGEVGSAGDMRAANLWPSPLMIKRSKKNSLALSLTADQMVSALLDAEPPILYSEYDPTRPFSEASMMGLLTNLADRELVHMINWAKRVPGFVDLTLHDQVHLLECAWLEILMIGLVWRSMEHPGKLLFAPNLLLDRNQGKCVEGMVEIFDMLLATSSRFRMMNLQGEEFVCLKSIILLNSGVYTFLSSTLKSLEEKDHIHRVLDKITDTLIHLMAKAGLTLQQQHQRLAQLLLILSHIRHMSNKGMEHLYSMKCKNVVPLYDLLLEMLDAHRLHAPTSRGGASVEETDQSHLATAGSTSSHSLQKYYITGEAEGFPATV
# experimentDescription: ER-α in Cell Western Assay (SP1)
# Assay type: cell-based
# assayContext: MCF7; MCF-7 cells, SP1 rabbit monoclonal Ab, 4 or 24 hr post compound addition; read-out: ER In-Cell Western Assay (SP1); Max Response
quantityName: Emax

molecule | Emax
C[C@@H]1CCN([C@@H](C)COc2ccc(C3c4ccc(O)cc4CC3c3ccccc3)cc2)C1 (stereo partly drawn) | ≥ 85%
C[C@@H]1CCN([C@@H](C)COc2ccc(C3c4ccc(O)cc4CC3c3ccc(F)cc3)cc2)C1 (stereo partly drawn) | ≥ 85%

In the following, a different molecule is considered.
Lookup: Fill in the blank: the reported Emax of C[C@@H]1CCN([C@@H](C)COc2ccc(C3c4ccc(O)cc4CC3c3ccc(O)cc3)cc2)C1 (stereo partly drawn) is ____.
Found: ≥ 85%

Source: patent US8853423B2
